tested on: MDA-MB-453; assay: Inhibition of tumor cell proliferation, CellTiter-Glo, MDA-MB-453; format: cell-based; conditions: Homo sapiens, MDA-MB-453; compound concentration 50 μM, 72 hours; read-out: Inhibitory activity against proliferation (cell survival rate) MDA-MB-453

compound: O=C1CCC(N2Cc3c(NC(=O)CN4CCN(CCNC=C5C(=O)CC(c6ccccc6Br)CC5=O)CC4)cccc3C2=O)C(=O)N1 (stereo not shown)
cell survival rate (%) at 50 µM: 30 to 60%
//
compound: CCCNC(=O)C1CC(=O)C(=CNc2cccc3c2CN(C2CCC(=O)NC2=O)C3=O)C(=O)C1 (stereo not shown)
cell survival rate (%) at 50 µM: 60 to 90%
//
compound: O=C1CCC(N2Cc3c(N/C=C4\C(=O)Nc5c(ccc6ccccc56)C4=O)cccc3C2=O)C(=O)N1 (stereo not shown)
cell survival rate (%) at 50 µM: ≤ 30%
//
compound: O=C1CCC(N2Cc3c(NC=C4C(=O)CCCC4=O)cccc3C2=O)C(=O)N1 (stereo not shown)
cell survival rate (%) at 50 µM: 60 to 90%
//
compound: O=C1CCC(N2Cc3c(NC=C4C(=O)CC(c5ccccc5)C(F)C4=O)cccc3C2=O)C(=O)N1 (stereo not shown)
cell survival rate (%) at 50 µM: ≤ 30%
//
compound: O=C1CCC(N2Cc3c(N/C=C4\C(=O)Nc5cc(C(F)(F)F)ccc5C4=O)cccc3C2=O)C(=O)N1 (stereo not shown)
cell survival rate (%) at 50 µM: 60 to 90%
//
compound: O=C1CCC(N2Cc3c(N/C=C4\C(=O)CC(c5ccccc5)OC4=O)cccc3C2=O)C(=O)N1 (stereo not shown)
cell survival rate (%) at 50 µM: 30 to 60%

---

target: LC3B (Homo sapiens (Human), UniProt Q9GZQ8); assay: Fluorescence polarization experiment targeting LC3B (GST-LC3B with FITC-labeled peptide); conditions: GST-LC3B 180 nM, FITC-labeled peptide 18 nM, 25° C.

molecule: O=C1CCC(N2Cc3c(NC=C4C(=O)CC(c5ccccc5)CC4=O)cccc3C2=O)C(=O)N1 (centres unmarked) [Compound 1]
target.entity: LC3B (Homo sapiens (Human), UniProt Q9GZQ8)
IC50: 3 to 15 µM
--
molecule: O=C1CCC(N2C(=O)c3cccc(NC=C4C(=O)CC(c5c(Br)ccc6[nH]cc(Cl)c56)CC4=O)c3C2=O)C(=O)N1 (centres unmarked) [Compound 13]
target.entity: LC3B (Homo sapiens (Human), UniProt Q9GZQ8)
IC50: < 3 µM
--
molecule: O=C1CCC(N2Cc3c(NC=C4C(=O)CC(c5cccc(Cl)c5Cl)CC4=O)cccc3C2=O)C(=O)N1 (centres unmarked) [Compound 7]
target.entity: LC3B (Homo sapiens (Human), UniProt Q9GZQ8)
IC50: < 3 µM
--
molecule: O=C1CCC(N2Cc3c(NC(=O)CCNC=C4C(=O)CC(c5ccccc5)CC4=O)cccc3C2=O)C(=O)N1 (centres unmarked) [Compound 45]
target.entity: LC3B (Homo sapiens (Human), UniProt Q9GZQ8)
IC50: 100 to 1000 µM
--
molecule: O=C1CCC(N2Cc3c(NC=C4C(=O)CC(c5c(Br)ccc6[nH]cc(Cl)c56)CC4=O)cccc3C2=O)C(=O)N1 (centres unmarked) [Compound 14]
target.entity: LC3B (Homo sapiens (Human), UniProt Q9GZQ8)
IC50: < 3 µM
--
molecule: O=C1CCC(N2Cc3c(NC(=O)CCCCNC=C4C(=O)CC(c5ccccc5)CC4=O)cccc3C2=O)C(=O)N1 (centres unmarked) [Compound 46]
target.entity: LC3B (Homo sapiens (Human), UniProt Q9GZQ8)
IC50: 100 to 1000 µM
--
molecule: O=C1CCC(N2C(=O)c3cccc(NC(=O)CNC=C4C(=O)CC(c5ccccc5)CC4=O)c3C2=O)C(=O)N1 (centres unmarked) [Compound 49]
target.entity: LC3B (Homo sapiens (Human), UniProt Q9GZQ8)
IC50: 100 to 1000 µM
--
molecule: O=C1CCC(N2Cc3c(NC(=O)COCCNC=C4C(=O)CC(c5ccccc5)CC4=O)cccc3C2=O)C(=O)N1 (centres unmarked) [Compound 48]
target.entity: LC3B (Homo sapiens (Human), UniProt Q9GZQ8)
IC50: 100 to 1000 µM
--
molecule: O=C1CCC(N2Cc3c(NC(=O)CCCNC=C4C(=O)CC(c5ccccc5)CC4=O)cccc3C2=O)C(=O)N1 (centres unmarked) [Compound 47]
target.entity: LC3B (Homo sapiens (Human), UniProt Q9GZQ8)
IC50: 100 to 1000 µM
--
molecule: Cc1ccc(C2CC(=O)C(=CNc3cccc4c3CN(C3CCC(=O)NC3=O)C4=O)C(=O)C2)c(Br)c1 (centres unmarked) [Compound 20]
target.entity: LC3B (Homo sapiens (Human), UniProt Q9GZQ8)
IC50: < 3 µM
--
molecule: O=C1CCC(N2Cc3c(NC=C4C(=O)CC(c5cc(C(F)(F)F)ccc5F)CC4=O)cccc3C2=O)C(=O)N1 (centres unmarked) [Compound 140]
target.entity: LC3B (Homo sapiens (Human), UniProt Q9GZQ8)
IC50: < 3 µM
--
molecule: CCC(=O)/C(=C/Nc1cccc2c1CN(C1CCC(=O)NC1=O)C2=O)C(=O)CCc1ccccc1 (centres unmarked) [Compound 128]
target.entity: LC3B (Homo sapiens (Human), UniProt Q9GZQ8)
IC50: 100 to 1000 µM
--
molecule: O=C1CCC(N2Cc3c(NC=C4C(=O)CC(c5c(C(F)(F)F)ccc(Cl)c5F)CC4=O)cccc3C2=O)C(=O)N1 (centres unmarked) [Compound 142]
target.entity: LC3B (Homo sapiens (Human), UniProt Q9GZQ8)
IC50: < 3 µM
--
molecule: O=C1CCC(N2Cc3c(NC=C4C(=O)CC(c5cc6[nH]ccc6cc5Cl)CC4=O)cccc3C2=O)C(=O)N1 (centres unmarked) [Compound 151]
target.entity: LC3B (Homo sapiens (Human), UniProt Q9GZQ8)
IC50: < 3 µM
